Study Target: recombinant Human Phosphodiesterase B2 (PDE4B2) (Homo sapiens, UniProt Q07343)
Sequence (Q07343 1-564 isoform Q07343-2): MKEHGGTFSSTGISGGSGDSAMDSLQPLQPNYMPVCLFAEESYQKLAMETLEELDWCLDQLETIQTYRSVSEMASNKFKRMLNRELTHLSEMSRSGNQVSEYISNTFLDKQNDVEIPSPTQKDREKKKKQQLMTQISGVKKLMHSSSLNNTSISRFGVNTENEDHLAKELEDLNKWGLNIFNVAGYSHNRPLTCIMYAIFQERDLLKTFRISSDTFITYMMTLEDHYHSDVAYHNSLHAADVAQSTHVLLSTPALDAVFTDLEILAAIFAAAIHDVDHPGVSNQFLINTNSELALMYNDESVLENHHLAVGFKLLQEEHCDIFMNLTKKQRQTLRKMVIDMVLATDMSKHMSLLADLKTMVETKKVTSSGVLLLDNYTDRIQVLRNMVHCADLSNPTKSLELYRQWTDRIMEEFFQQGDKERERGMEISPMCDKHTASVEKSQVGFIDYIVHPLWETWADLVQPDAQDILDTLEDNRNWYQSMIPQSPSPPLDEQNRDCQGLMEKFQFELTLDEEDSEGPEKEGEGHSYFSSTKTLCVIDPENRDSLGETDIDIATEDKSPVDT
Assay Remarks: Human Phosphodiesterase B2 Radiometric Assay (yttrium silicate SPA beads, [3H]cyclic AMP)
Format: biochemical
Details: recombinant human PDE4B2, radiometric SPA assay, 8 nM [3H]cyclic AMP; read-out: PDE4B2 pIC50 (converted)
Experimental Endpoint: IC50 (nM)
Numbers only, in nM.

Sample records with IC50:
{"Structure": "CSc1cccc(-c2cccc(-n3c(=O)n([C@H]4CC[C@@H](NC(=O)c5cn6cc(F)ccc6n5)CC4)c(=O)c4cc(F)cnc43)c2)c1", "IC50 (nM)": 0.0126}
{"Structure": "CC(C)(C)OC(=O)N[C@H]1CC[C@@H](n2c(=O)c3cc(F)cnc3n(-c3cccc(-c4ccccc4CN4CCOCC4)c3)c2=O)CC1", "IC50 (nM)": 0.316}
{"Structure": "O=C(N[C@H]1CC[C@@H](n2c(=O)c3cc(F)cnc3n(-c3cccc(-c4ccc(CN5CCCNCC5)cc4)c3)c2=O)CC1)c1cc(=O)c2ccccc2[nH]1", "IC50 (nM)": 0.0501}
{"Structure": "C[C@@H]1CN(Cc2ccc(-c3cccc(-n4c(=O)n([C@H]5CC[C@@H](NC(=O)c6ccc7ccccc7n6)CC5)c(=O)c5cc(F)cnc54)c3)cc2)C[C@H](C)N1", "IC50 (nM)": 0.0316}
{"Structure": "CCCNC1(C(=O)N[C@H]2CC[C@@H](n3c(=O)c4cc(F)cnc4n(-c4cccc(-c5ccccc5CN5CCOCC5)c4)c3=O)CC2)CCCC1", "IC50 (nM)": 3.98}

Please look at the following molecule next.
Request: Quick check: IC50 on recombinant Human Phosphodiesterase B2 (PDE4B2) (Homo sapiens, UniProt Q07343), item O=C(N[C@H]1CC[C@@H](n2c(=O)c3cc(F)cnc3n(-c3ccc4c(cnn4Cc4ccccc4)c3)c2=O)CC1)c1cn2cc(F)ccc2n1 ?
Response: 10
